biological target: T1, human CCR2 (CC-Chemokine Receptor 2) (human, UniProt P41597 1-374); assay: flow cytometry on CHO-huCCR2 cells, PE anti-human IgG
T1 construct: whole, on cells; also called huCCR2; CHO-huCCR2
T1 sequence (P41597 whole entry): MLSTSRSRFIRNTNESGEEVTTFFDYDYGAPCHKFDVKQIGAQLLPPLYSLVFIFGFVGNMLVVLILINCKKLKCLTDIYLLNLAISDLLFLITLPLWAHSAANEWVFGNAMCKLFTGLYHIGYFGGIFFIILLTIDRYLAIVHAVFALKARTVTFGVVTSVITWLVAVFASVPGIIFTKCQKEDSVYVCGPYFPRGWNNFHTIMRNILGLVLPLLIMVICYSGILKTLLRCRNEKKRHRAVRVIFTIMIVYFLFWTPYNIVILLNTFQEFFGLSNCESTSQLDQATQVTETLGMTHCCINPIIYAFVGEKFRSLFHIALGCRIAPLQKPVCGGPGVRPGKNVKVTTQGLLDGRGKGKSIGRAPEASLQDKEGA
pEC50: −log10 of the molar value.
pEC50 of 9 or higher: condition met. Under 9: condition not met.

Asked: Tell me whether pEC50 is at least 9 here: D1-1/LO (antibody, V domains shown, The suffix '/LO' is not explained) VH: QVQLVQSGAEVKKPGASVKVSCKASGYTFTGYYMHWVRQAPGQGLEWMGWINPNSGVTKYAQKFQGRVTMTRDTSTSTVYMELSSLRSEDTAVYYCATGGFGYWGEGTLVTVSS VL: LPVLTQPPSVSKGLRQTATLTCTGNSNNVGNQGAAWLQQHQGQPPKLLSYRNHNRPSGVSERFSPSRSGDTSSLTITGLQPEDEADYYCLAWDSSLRAFVFGTGTKLTVL
Given back: condition met

Asked: Now this one: D1-1/45H8L1 (antibody, V domains shown, also called D1H1/45H8L1; D1-1B) VH: QVQLVQSGAEVKKPGASVKVSCKASGYTFTGYYMHWVRQAPGQGLEWMGWINPNSGVTKYAQKFQGRVTMTRDTSTSTVYMELSSLRSEDTAVYYCATGGFGYWGEGTLVTVSS VL: QAVLTQPPSVSKGLRQTATLTCTGNSNNVGNQGAAWLQQHQGQPPKLLSYRNHNRPSGVSERFSPSRSGDTSSLTITGLQPEDEADYYCLAWDSSLRAFVFGTGTKLTVL
Given back: condition met

Asked: Now this one: 1A2 (antibody, V domains shown, tested as IgG) VH: EVQLVQSGAEVKKPGASVKVSCKASGYTFTSYYMHWVRQAPGQGLEWMGIINPSGGSTSYAQKFQGRVTMTRDTSTSTVYMELSSLRSEDTAVYYCATGSGGGTMDVWGQGTTVTVSS VL: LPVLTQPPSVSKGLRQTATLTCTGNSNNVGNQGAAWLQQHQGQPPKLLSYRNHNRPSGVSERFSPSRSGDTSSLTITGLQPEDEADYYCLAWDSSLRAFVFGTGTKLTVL
Given back: condition not met

Asked: Now this one: 1B11 (antibody, V domains shown, tested as IgG) VH: QVQLVESGGGVVQPGRSLRLSCAASGFTFSSYAMHWVRQAPGKGLEWVAVISYDGSNKYYADSVKGRFTISRDNSKNTLYLQMNSLKAEDTAVYYCATAAAGPFDYWGQGTTVTVSS VL: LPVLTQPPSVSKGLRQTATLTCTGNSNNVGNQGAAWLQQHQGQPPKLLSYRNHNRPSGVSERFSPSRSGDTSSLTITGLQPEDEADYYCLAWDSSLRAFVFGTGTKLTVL
Given back: condition not met
